Target: AhR receptor (Homo sapiens)
Construct: cells of reporter gene expressing natural (Human Hepatoma Huh-7) AhR receptor; endogenous in cells; host or cells: Human hepatoma Huh-7 reporter cells (firefly luciferase under a receptor-specific response element)
Sequence (P35869 11-848): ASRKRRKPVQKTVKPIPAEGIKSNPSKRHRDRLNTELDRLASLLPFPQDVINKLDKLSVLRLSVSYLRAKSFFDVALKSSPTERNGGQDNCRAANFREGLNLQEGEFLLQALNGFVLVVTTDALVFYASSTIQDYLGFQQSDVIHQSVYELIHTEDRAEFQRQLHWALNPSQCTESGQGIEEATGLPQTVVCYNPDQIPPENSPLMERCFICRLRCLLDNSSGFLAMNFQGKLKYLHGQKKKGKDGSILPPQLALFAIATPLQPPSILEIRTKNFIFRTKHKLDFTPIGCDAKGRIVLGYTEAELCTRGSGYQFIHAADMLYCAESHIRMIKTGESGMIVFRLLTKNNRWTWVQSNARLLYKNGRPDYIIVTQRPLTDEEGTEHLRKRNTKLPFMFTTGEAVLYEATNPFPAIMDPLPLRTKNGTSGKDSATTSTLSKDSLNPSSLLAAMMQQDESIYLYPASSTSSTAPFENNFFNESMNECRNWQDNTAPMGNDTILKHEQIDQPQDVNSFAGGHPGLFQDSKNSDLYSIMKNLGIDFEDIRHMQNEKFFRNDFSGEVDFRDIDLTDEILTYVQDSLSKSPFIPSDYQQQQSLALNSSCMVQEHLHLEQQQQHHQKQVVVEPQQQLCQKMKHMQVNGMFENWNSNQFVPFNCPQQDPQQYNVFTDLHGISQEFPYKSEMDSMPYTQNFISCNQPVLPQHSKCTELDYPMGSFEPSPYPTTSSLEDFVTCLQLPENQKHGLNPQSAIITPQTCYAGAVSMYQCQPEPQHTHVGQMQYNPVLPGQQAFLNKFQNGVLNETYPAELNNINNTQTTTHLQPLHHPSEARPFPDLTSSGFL
Test: AhR agonist assay (luciferase reporter gene cells)
Type: cell-based
Settings: reporter cells expressing natural (Human Hepatoma Huh-7) AhR receptor, firefly luciferase, 24 hours at 37° C., 0.1% DMSO
Give measured EC50 for each item. Keep answers brief.

Chemical smiles: CO/N=C(/c1nc(C(=O)OC)cs1)c1c[nH]c2ccccc12
System name: AhR receptor (Homo sapiens)
Reading: 1000 to 10000 nM
--
Chemical smiles: COC(=O)c1csc(Cc2c[nH]c3ccccc23)n1
System name: AhR receptor (Homo sapiens)
Reading: 10000 to 100000 nM
--
Chemical smiles: COC(=O)c1ccc(C(=O)c2c[nH]c3ccccc23)nc1
System name: AhR receptor (Homo sapiens)
Reading: 1000 to 10000 nM
--
Chemical smiles: Nc1nc(-c2csc(C(=O)c3c[nH]c4ccccc34)n2)cs1
System name: AhR receptor (Homo sapiens)
Reading: 1 to 1000 nM
--
Chemical smiles: COC(=O)c1csc(/C(=N/O)c2c[nH]c3ccccc23)n1
System name: AhR receptor (Homo sapiens)
Reading: 1000 to 10000 nM
--
Chemical smiles: COC(=O)c1csc(/C(=N\O)c2c[nH]c3ccccc23)n1
System name: AhR receptor (Homo sapiens)
Reading: 1000 to 10000 nM
--
Chemical smiles: COCCOCCOCCOC(=O)n1cc(C(=O)c2nc(C(=O)OC)cs2)c2ccccc21
System name: AhR receptor (Homo sapiens)
Reading: 1 to 1000 nM
--
Chemical smiles: CC(C)c1csc(C(=O)c2c[nH]c3ccccc23)n1
System name: AhR receptor (Homo sapiens)
Reading: 1 to 1000 nM
--
Chemical smiles: O=C(c1nc(-c2nccs2)cs1)c1c[nH]c2ccccc12
System name: AhR receptor (Homo sapiens)
Reading: 1 to 1000 nM
--
Chemical smiles: COC(=O)c1csc(C(=O)c2c[nH]c3ccc(OC)cc23)n1
System name: AhR receptor (Homo sapiens)
Reading: 1 to 1000 nM

Now for a further compound.
EC50 for COCCOCCOCCOCC(=O)OCn1cc(C(=O)c2nc(C(=O)OC)cs2)c2ccccc21 is 1 to 1000 nM
